- Test system: SF-295 CNS
- PROCEDURE_TEXT: NCI tumour cell line growth inhibition, 48 h; in the data active = GI50 below about 0.43 µM; inactive = the rest
Hello, when you answer, please use one of the following outcomes: active, inactive

Before answering, review these 8 worked examples.
| MOLECULE | SUBJECT_OF_TEST | CATEGORY_LABEL |
| --- | --- | --- |
| CCCCCCC(O)C(O)CCC(O)C1CCC(CCCCC(O)CC2=CC(C)OC2=O)O1 (stereo unspecified) | SF-295 CNS | active |
| CCC1(N)C(=O)OCc2c1cc1n(c2=O)Cc2cc3ccccc3nc2-1 (stereo unspecified) | SF-295 CNS | inactive |
| CC(C)=CCc1c(O)c(C(=O)CC(C)C)c(O)c2c(-c3ccccc3)cc(=O)oc12 | SF-295 CNS | inactive |
| COC1C(O)CC(OC2CC(OC3CC(O[C@@H]4C(=O)c5c(cc6cc(OC7CC(OC8CC(O)C(O)C(C)O8)C(O)C(C)O7)c(C)c(O)c6c5O)CC4[C@H](OC)[C@@H](O)C(C)=O)OC(C)C3O)OC(C)C2O)OC1C (stereo partly specified) | SF-295 CNS | active |
| C#CCN(Cc1nc2cc(C(F)(F)F)ccc2nc1-c1ccccc1)c1ccc(F)cc1 | SF-295 CNS | inactive |
| C[C@@]1(O)CCC[C@H]1n1c(=O)c(C(F)F)cc2cnc(NC3CCN(S(C)(=O)=O)CC3)nc21 | SF-295 CNS | inactive |
| O=C(Nc1ccc(N2CCNCC2)cn1)c1[nH]ncc1Nc1ncnc2sccc12 | SF-295 CNS | inactive |
| N#Cc1ccc(NC(=O)Nc2nc3ccc(OC(F)(F)F)cc3s2)cc1 | SF-295 CNS | inactive |

Tell me the recorded outcome of this test for "COCC(=O)NC/C=C/c1ccc2ncnc(Nc3ccc(Oc4ccc(C)nc4)c(C)c3)c2c1" .
inactive

Tell me the recorded outcome of this test for "C[C@@H]1OC(=O)NN=C1c1ccc(-c2ccc(F)cc2)c(C(F)(F)F)c1" .
inactive

Tell me the recorded outcome of this test for "COc1ccc(C(=O)c2cc(C)c(OC)c(C)c2)c(OC)c1N(C(=O)CCl)C(=O)CCl" .
active

Tell me the recorded outcome of this test for "Cc1ccccc1C[P+](c1ccccc1)(c1ccccc1)c1ccccc1" .
inactive

Tell me the recorded outcome of this test for "COc1c(Cl)[c]([Hg][O]C(C)=O)c(NCC(C)=O)c(OC)[c]1[Hg][O]C(C)=O" .
inactive

Tell me the recorded outcome of this test for "COc1cccc(NC(=O)c2ccc(NC3=C(Cl)C(=O)N(Cc4ccccc4)C3=O)cc2)c1" .
inactive

Tell me the recorded outcome of this test for "COC(=O)[C@H](Cc1cn(C)cn1)NC(=O)[C@@H](NC(=O)Nc1cc(C(F)(F)F)cc(C(F)(F)F)c1)C(C)(C)C" .
inactive

Tell me the recorded outcome of this test for "O=C1c2ccccc2-c2c1c1ccc([N+](=O)[O-])cc1c(=O)n2CCCn1ccnc1" .
active

* * *

- Tested on: MDA-MB-435
- PROCEDURE_TEXT: NCI tumour cell line growth inhibition, 48 h
REPORTED_ENDPOINT: TGI (µM)
The figure you give is taken to be in µM; do not add the unit.

Look over these answered cases.
| MOLECULE | REPORTED_ENDPOINT | NUMERIC_READOUT |
| --- | --- | --- |
| N#CC1=C(S)N(C2OC(CO)C(O)C(O)C2O)C(c2ccccc2)=CC1c1cccs1 (centres undefined) | TGI | 44.1 |
| C[C@H]1[C@H](C)CC[C@]2(C(=O)OC3OC(CO)C(O)C(O)C3O)CC[C@]3(C)C(=CC[C@@H]4[C@@]5(C)C[C@@H](O)[C@@H]6OC(=O)c7cc(O)c(O)c(O)c7-c7c(cc(O)c(O)c7O)C(=O)OC[C@]6(CO)[C@@H]5CC[C@]43C)[C@H]12 (some centres undefined) | TGI | 32.9 |
| COc1ccccc1N1CCN(CCCOc2ccc(C(=O)/C=C3/C(=O)Nc4ccccc43)cc2)CC1 | TGI | 52.3 |
| COc1ccc(Br)c(C=Nc2cccc3cc(OC)c(OC)cc23)c1 | TGI | 12.6 |
| COc1cc2c3c(c1OC)C(=O)C(=O)C1=C3N(CCC1)CC2 | TGI | 53.8 |

Return TGI (reported value) for this molecule: "COCC(=O)NC/C=C/c1ccc2ncnc(Nc3ccc(Oc4ccc(C)nc4)c(C)c3)c2c1"
29.9

Return TGI (reported value) for this molecule: "O=S(=O)(NCCNc1cc(-c2cn(-c3ccccc3)nc2-c2cccc(O)c2)ccn1)c1ccc(Br)cc1"
3.65

Return TGI (reported value) for this molecule: "C=C1C(=O)O[C@H]2[C@H]1CC/C(Cn1cc(-c3ccsc3)nn1)=C\CC[C@@]1(C)O[C@@H]21"
4.54
